These entries and their values trace back to patent US9464064B2.

tested-on: HCV NS3 helicase NS3h_1b(con1) (Hepatitis C virus genotype 1b, UniProt Q9WMX2)
Construct: truncated C-terminally His-tagged NS3 proteins lacking the N-terminal protease, called NS3h; His-tag (C); made in house
Sequence (Q9WMX2 1192-1657): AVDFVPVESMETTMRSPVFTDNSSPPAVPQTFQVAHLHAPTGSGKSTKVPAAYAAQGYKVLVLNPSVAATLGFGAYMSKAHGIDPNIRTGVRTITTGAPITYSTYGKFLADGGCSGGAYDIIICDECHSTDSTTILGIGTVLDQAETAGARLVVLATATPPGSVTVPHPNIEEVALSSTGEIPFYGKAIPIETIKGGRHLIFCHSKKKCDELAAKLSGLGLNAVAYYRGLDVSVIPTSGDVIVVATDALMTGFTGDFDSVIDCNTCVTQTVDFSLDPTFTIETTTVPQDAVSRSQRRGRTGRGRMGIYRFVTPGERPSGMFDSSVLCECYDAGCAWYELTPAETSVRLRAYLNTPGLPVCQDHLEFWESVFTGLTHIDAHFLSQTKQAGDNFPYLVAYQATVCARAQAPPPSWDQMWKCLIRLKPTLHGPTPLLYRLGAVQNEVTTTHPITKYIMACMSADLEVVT
assay-details: MBHA screen of NCI mechanistic set library at 20 μM (percent inhibition, compound interference)
Assay type: biochemical
experimental-setup: compounds at 20 μM; assay interference calculated with Equation 2 (fluorescence vs DMSO-only controls before ATP)
assay-metric: Int.* (Ratio) (Interference)

{"columns": ["molecule", "Int.* (Ratio) (Interference)"],
 "data": [
  ["COc1cc(O)c(Cc2ccccc2O)c(O)c1C(=O)CCc1ccccc1", 0.88],
  ["CN(C)c1ccc(/C=C/C(=O)[O-])cc1.CN(C)c1ccc(/C=C/C(=O)[O-])cc1.[Cu+2]", 0.89],
  ["CC(=O)O[C@H]1C[C@H](O[C@H]2[C@@H](O)C[C@H](O[C@H]3[C@@H](O)C[C@H](O[C@H]4CC[C@@]5(C)[C@H](CC[C@@H]6[C@@H]5CC[C@]5(C)[C@@H](C7=CC(=O)OC7)CC[C@]65O)C4)O[C@@H]3C)O[C@@H]2C)OC(C)[C@H]1O[C@@H]1O[C@H](CO)[C@@H](O)[C@H](O)[C@H]1O (stereo partly drawn)", 0.89],
  ["COc1cc2c(cc1O)N=CC1CCC(O)N1C2=O (stereo not drawn)", 1.01],
  ["Cl.O=C1/C(=C\\c2ccc(Cl)c(Cl)c2)CN(C(=O)CCN2CCOCC2)C/C1=C\\c1ccc(Cl)c(Cl)c1", 0.76],
  ["CCP(CC)CC.[Au+].[Cl-]", 0.93],
  ["O=C1C=Cc2ncccc2C1=O", 0.84],
  ["S=C(Nc1ccccc1)N(/N=C/C=C/c1ccccc1)c1nnc(-c2ccccc2)c(-c2ccccc2)n1", 0.86],
  ["CCCC(=O)OCC1OC(n2ccc(N)nc2=O)C(OC(=O)CCC)C1OC(=O)CCC (stereo not drawn)", 1.09],
  ["COC1CC(C)C(OC)c2cc(O)cc(c2O)NC(=O)/C(C)=C/C=C\\C(C)C(OC(N)=O)/C(C)=C/C(C)C1OC (stereo not drawn)", 1.04],
  ["CC1=C(C(=O)NCc2ccccc2)C(c2ccccc2O)C(C(=O)NCc2ccccc2)=C(C)N1", 0.97],
  ["C[C@@H]1CC[C@H]2C(C)(C)[C@H]3C[C@@]12CC[C@@]3(C)O", 0.93],
  ["Nc1nc2c(ncn2[C@@H]2O[C@H](CO)[C@@H](O)[C@H]2O)c(=O)[nH]1", 1.05],
  ["O=C1C=C(NCCc2ccccc2)c2ccccc2C1=O", 1.07],
  ["COc1ccccc1/C=C1\\Sc2scc(-c3cccc([N+](=O)[O-])c3)[n+]2C1=O", 1.00],
  ["O=C1C=C(N2CCNCC2)C(=O)c2c(O)ccc(O)c21", 0.78],
  ["Cc1ccc(NC(=O)c2cccc([N+](=O)[O-])c2O)c([N+](=O)[O-])c1", 0.94],
  ["COC1CC(O[C@H]2CC[C@]3(C=O)[C@H]4CC[C@]5(C)[C@@H](C6=CC(=O)OC6)CC[C@]5(O)[C@@H]4CC[C@]3(O)C2)OC(C)C1O (stereo partly drawn)", 0.97],
  ["CN(NC1=NCCO1)c1ccc2ccccc2c1", 1.18],
  ["CN/N=C(\\C)C(CN1CCCCC1)C(C1=C(O)c2ccccc2OC1)c1ccccc1.Cl (stereo not drawn)", 1.00],
  ["CC12CC(Br)(Br)C(=O)C3C1CCCC32", 1.05]
]}
